- Tested on: SK-MEL-28
- test.method.notes: NCI tumour cell line growth inhibition, 48 h
Active and inactive are the calls of the source. No stated cut-off is given here; in the data, active = GI50 up to about 1.1 µM and inactive = higher.
Log the outcome using a class from yes (1) (active), no (0) (inactive)

Prompt: Please indicate how the test categorized "CN1CC[C@@]2(c3cccc(O)c3)CC(=O)/C(=C/c3ccc(Cl)c(Cl)c3)[C@H]1C2" .
Response: no (0)

Prompt: Same thing, different compound: "COc1cc(Nc2cnc3cc(N)ccc3n2)cc(OC)c1OC"
Response: no (0)

Prompt: Same thing, different compound: "Cc1ccc(S(=O)(=O)c2c(N)n(CCN(C)C)c3nc4ccccc4nc23)cc1"
Response: no (0)

Prompt: Same thing, different compound: "CN(C)/C=N\c1nncc2[nH]nnc12"
Response: no (0)

Prompt: Same thing, different compound: CC(=O)OCC1OC(Nn2c(=O)[nH]c3ccccc3c2=O)C(OC(C)=O)C(OC(C)=O)C1OC(C)=O (stereo not given)
Response: no (0)

Prompt: Same thing, different compound: "CC(=O)OCCc1cc2ccccc2oc1=O"
Response: no (0)

Prompt: Same thing, different compound: O=C(NCc1cccnc1)C1COc2cc(-c3cc(=O)c4ccccc4o3)ccc2O1 (stereo not given)
Response: no (0)

Prompt: Same thing, different compound: "CN1c2ccccc2C(=O)NC12CCN(CCCC(=O)c1ccc(F)cc1)CC2"
Response: no (0)

Prompt: Same thing, different compound: CC(=O)O[C@H]1C(=O)[C@@]2(C)C([C@H](OC(=O)c3ccccc3)[C@]3(O)C[C@H](OC(=O)[C@H](O)[C@@H](NC(=O)c4ccc(Cl)cc4)c4ccccc4)C(C)=C1C3(C)C)C1(OC(C)=O)CO[C@@H]1C[C@@H]2O (stereo not given in full)
Response: yes (1)

Prompt: Same thing, different compound: "CSCCCNC(=O)c1csc(-c2csc(CCNC(=O)CNC(=O)OC(C)(C)C)n2)n1"
Response: no (0)

Prompt: Same thing, different compound: "CCc1cccc(C(C)(C)C)c1NC(=S)N/C=C(/C#N)C(N)=O"
Response: no (0)

Prompt: Same thing, different compound: C=C(C)[C@H]1[C@@H]2OC(=O)[C@H]1[C@]1(O)C[C@H]3OC34C(=O)O[C@H]2[C@@]41C.CC(C)(O)[C@H]1[C@@H]2OC(=O)[C@H]1[C@]1(O)C[C@H]3OC34C(=O)O[C@H]2[C@@]41C (stereo not given in full)
Response: no (0)

Prompt: Same thing, different compound: C=C1C(O)C23CCC4C(C(=O)O)(C(=O)O)CC(OC5OC(CO)C(O)C(OC(=O)CCc6ccccc6)C5NC(=O)CC(C)C)CC4(C)C2CCC1(O)C3 (stereo not given)
Response: no (0)

Prompt: Same thing, different compound: "CCOC(=O)c1sc2c(sc(=O)n2-c2ccccc2)c1O"
Response: no (0)

Prompt: Same thing, different compound: "CCNC(=O)c1ccc(C)c(/N=N/N(C)C)c1"
Response: no (0)

Prompt: Same thing, different compound: "COc1ccc(NC(=S)NC(=O)c2ccc3c(c2)Sc2ccccc2O3)c([N+](=O)[O-])c1"
Response: no (0)

Prompt: Same thing, different compound: "N#Cc1nc(NC(=O)c2ccccc2)sc1N"
Response: no (0)

Prompt: Same thing, different compound: COC(=S)OC1CC(n2cnc3c(N)ncnc32)OC1CO[Si](C)(C)C(C)(C)C (stereo not given)
Response: no (0)

Prompt: Same thing, different compound: O=NN(CCCl)C(=O)NC1CCCCC1 [LOMUSTINE]
Response: no (0)

Prompt: Same thing, different compound: "Cc1ccc2cc3cccc(C(=O)NCCN(C)C)c3nc2c1"
Response: no (0)

Prompt: Same thing, different compound: CC(=O)OC(C)(C)/C=C/C(=O)[C@](C)(O)[C@H]1[C@H](O)C[C@@]2(C)[C@@H]3CC=C4[C@@H](C[C@H](O)C(=O)C4(C)C)[C@]3(CO)C(=O)C[C@]12C [CUCURBITACIN A]
Response: yes (1)

Prompt: Same thing, different compound: COC(=O)CCC(C)C1CCC2C3CCC4CC5CCC4(C)C3(O5)C(Br)C(Br)C12C (stereo not given)
Response: no (0)

Prompt: Same thing, different compound: "NC1=C(NC(=O)Cc2ccccc2F)C(=O)c2ccccc2C1=O"
Response: no (0)

Prompt: Same thing, different compound: "COc1ccc2c3c1O[C@]1(C)C34CCN(C)C(C2)C42C=C[C@@]1(OC)c1c(O)ccc(O)c12"
Response: no (0)

Prompt: Same thing, different compound: COc1cc(C2c3cc4c(cc3[C@H](OCCN(C)C)[C@@H]3COC(=O)C23)OCO4)cc(OC)c1O (stereo not given in full)
Response: yes (1)
